Values compiled from the supplement of paper PMC7411054.

- Test system: WPMY1-ACTB-RAB5A
- method_description: phenotypically active (imaging signature differs from DMSO and reproducible) at any of 0.3-9 uM (binary (1 = active, 0 = inactive)); higher = active
- condition_notes: treatment time: 24 h
measurement_kind: phenotypically active
Note: the reply should be a number with no unit written.

compound | phenotypically active
C[C@@H]1C(=O)O[C@H]2C[C@@]34[C@H]5C[C@@H](C(C)(C)C)[C@]36[C@@H](OC(=O)[C@@H]6O)O[C@@]4(C(=O)O5)[C@]21O [Ginkgolide A] | 0

I have this compound here, CC[N+](C)(CC)CCOC(=O)C1c2ccccc2Oc2ccccc21 , and I need its recorded phenotypically active.
0

Another: CCCCC(=O)O[C@H]1CC[C@H]2[C@@H]3CCc4cc(O)ccc4[C@H]3CC[C@]12C [estradiol valerate]
0

And for CCCc1cc(C)n(C)c(=O)c1CN(C)C(=O)c1cc(-c2ccc(N3CCN(C(C)C)CC3)nc2)cc2c1cnn2C(C)C ?
1

What do you get for COc1ccc(CC2c3cc(OC)c(OC)cc3CC[N+]2(C)CCC(=O)OCCCCCOC(=O)CC[N+]2(C)CCc3cc(OC)c(OC)cc3C2Cc2ccc(OC)c(OC)c2)cc1OC (configuration not stated) [Atracurium besilate] ?
1

Please give the result for Cc1ccc(Nc2nccc(N(C)c3ccc4c(C)n(C)nc4c3)n2)cc1S(N)(=O)=O too.
1

Repeat for the following compound: C[C@@H](N)[C@H]1CC[C@H](C(=O)Nc2ccncc2)CC1
1

Then what about the compound Nc1nc(Cl)nc2c1ncn2[C@H]1C[C@H](O)[C@@H](CO)O1 ?
1

Would you kindly repeat that for O=C(O)c1cc(=O)c(O)c(C(=O)O)o1 ?
0

Lookup CC(C)(C#N)c1cc(Cn2cncn2)cc(C(C)(C)C#N)c1
0

O=C(Cn1ccnc1[N+](=O)[O-])NCc1ccccc1 ?
0

Also, Cn1c(=O)c2[nH]cnc2n(C)c1=O please.
0

Param item: O=C(O)c1ccc(N2N=C(Cc3ccccc3)/C(=C/c3ccc(-c4ccccc4F)o3)C2=O)cc1
0

For CC(C)(C)c1ccc(C(O)CCCN2CCC(C(O)(c3ccccc3)c3ccccc3)CC2)cc1 (configuration not stated) then?
0

// query: CNC[C@H](O)c1ccc(O)c(O)c1 [epinephrine]
0

Now consider CN1CCCC(n2nc(Cc3ccc(Cl)cc3)c3ccccc3c2=O)CC1 (configuration not stated) and answer again.
1

Follow-up item: CCN(Cc1ccncc1)C(=O)C(CO)c1ccccc1 (configuration not stated) [tropicamide]
0

###

- Tested on: A549-GM130-SQSTM1
- method_description: phenotypically active (imaging signature differs from DMSO and reproducible) at any of 0.3-9 uM (binary (1 = active, 0 = inactive)); higher = active
- condition_notes: treatment time: 24 h
Where a name gives a salt, the structure may show the parent alone.
Parameter call: string, one of active, inactive

Here are 3 compounds together with their reported answers.
compound | qualitative_label
COc1c(Cl)cc2c([nH]c3cnccc32)c1NC(=O)c1cccnc1C [ML 120B dihydrochloride] | active
O=c1ncccn1[C@@H]1O[C@H](CO)[C@@H](O)[C@H]1O | inactive
NC(=O)c1ncn([C@@H]2O[C@H](CO)[C@@H](O)[C@H]2O)c1N | inactive

Hello, I am checking results. What call was entered for CC1(CN2CCC(n3c(=O)[nH]c4ccccc43)CC2)OCc2ccccc2-n2cccc21 (stereo not given) ?
inactive

What would you report for CC(C)c1ccc2oc3nc(N)c(C(=O)O)cc3c(=O)c2c1 ?
inactive

###

Here the recorded phenotypically active is given for each entry.
- Tested on: HepG2-TP53BP1-CLTA
- method_description: phenotypically active (imaging signature differs from DMSO and reproducible) at any of 0.3-9 uM (binary (1 = active, 0 = inactive)); higher = active
- condition_notes: treatment time: 24 h
// no unit string in output, number only

compound | phenotypically active
CN(C)CCOC(c1ccc(Cl)cc1)c1ccccn1 (configuration not stated) | 0
N#Cc1c(NC(=O)c2cccc3ccccc23)sc2c1CCCC2 | 1
CC(CN(C)C)CN1c2ccccc2CCc2ccccc21 (configuration not stated) | 0
Cc1ccc([N+](=O)[O-])cc1S(=O)(=O)N(C)/N=C/c1cnc2ccc(Br)cn12 | 1
CN1CCc2cccc3c2[C@H]1Cc1ccc(O)c(O)c1-3 [r(-)-apomorphine] | 0
O=C1Cc2cc(CCN3CCN(c4nsc5ccccc45)CC3)c(Cl)cc2N1 | 1
CCOc1ccccc1OCCN[C@H](C)Cc1ccc(OC)c(S(N)(=O)=O)c1 | 0
CC(C)N(CCCNC(=O)Nc1ccc(C(C)(C)C)cc1)C[C@H]1O[C@@H](n2ccc3c(N)ncnc32)[C@H](O)[C@@H]1O | 1

What value of phenotypically active has been reported for the following compound? COc1ccc([C@@H]2CC(=O)c3c(O)cc(O[C@@H]4O[C@H](CO[C@@H]5O[C@@H](C)[C@H](O)[C@@H](O)[C@H]5O)[C@@H](O)[C@H](O)[C@H]4O)cc3O2)cc1O
0

Another compound to check: CCOc1nc(NC(=O)Cc2cc(OC)ccc2OC)cc(N)c1C#N
0

###

Quick list: phenotypically active per entry.
- Test system: WPMY1-ACTB-RAB5A
- method_description: phenotypically active (imaging signature differs from DMSO and reproducible) at any of 0.3-9 uM (binary (1 = active, 0 = inactive)); higher = active
- condition_notes: treatment time: 24 h
Please give only the number in your answer, with no unit.

Return reported phenotypically active; argument: CCCC(=O)O[C@]1(C(=O)COC(C)=O)CC[C@H]2[C@@H]3C[C@H](F)C4=CC(=O)C=C[C@]4(C)[C@@]3(F)[C@@H](O)C[C@@]21C [difluprednate]
0

Also, C=C[C@H]1[C@H](O[C@@H]2O[C@H](CO)[C@@H](O)[C@H](O)[C@H]2O)OC=C2C(=O)NCC[C@H]21 please.
0

Queued: O=C(NC(NC(=S)Nc1ccc(F)c([N+](=O)[O-])c1)C(Cl)(Cl)Cl)C(c1ccccc1)c1ccccc1 (centres undefined)
1

Moving on to the next compound: NC(=O)OCC(COC(N)=O)c1ccccc1 [felbamate]
0

COc1ccc(S(=O)(=O)Nc2cccnc2Nc2ccc(O)cc2)cc1 ?
1

One more compound: CC(C)c1cc(-c2n[nH]c(=O)n2-c2ccc3c(ccn3C)c2)c(O)cc1O
1

###

# reported phenotypically active; entries follow
- Test system: HepG2-TP53BP1-CLTA
- method_description: phenotypically active (imaging signature differs from DMSO and reproducible) at any of 0.3-9 uM (binary (1 = active, 0 = inactive)); higher = active
- condition_notes: treatment time: 24 h
Structures can show the parent of a compound that is named as a salt.
# output: bare number, no unit

molecule | phenotypically active
O=S(=O)(c1cccc2c(O)nccc12)N1CCCNCC1 [HA 1100 hydrochloride] | 1
CC(C(=O)Nc1cccc(/N=C/c2c(O)ccc3ccccc23)c1)c1ccccc1 (stereo unspecified) [Salermide] | 0
COCCc1ccc(OCC(O)CNC(C)C)cc1 (stereo unspecified) | 0
C=C1CC[C@H](O)C/C1=C\C=C1\CCC[C@]2(C)[C@@H]([C@H](C)/C=C/[C@H](C)C(C)C)CC[C@@H]12 | 0
C=C1CN(Cc2ccc(C(=O)Nc3ccccc3N)cc2)C(=O)c2ccccc21 | 1

I am curious: what phenotypically active value has been reported for O=C(O)c1ccc(N2N=C(Cc3ccccc3)/C(=C/c3ccc(-c4ccccc4F)o3)C2=O)cc1 ?
0

Input CNC(=O)COC(=O)NCCC1CCN(c2cccc(C)n2)CC1
0

Quick one: NC(=O)c1ncn([C@@H]2O[C@H](CO)[C@@H](O)[C@H]2O)c1N
0

###

- System: A549-TP53BP1-CLTA
- method_description: lowest phenotypically active concentration; higher = less potent
- condition_notes: treatment time: 24 h
Counter-ions that a name gives are not always drawn.
Catalogue of molecules with associated lowest phenotypically active concentration

Use the examples below as a reference point.
molecule | readout_value
O=C(CCCCCN1C(=O)c2cccc3cccc(c23)C1=O)NO [Scriptaid] | 1 µM
C[C@H]1COCCN1c1cc(C2(S(=O)(=O)C3CC3)CC2)nc(-c2ccc(NC(=S)NCCO)cc2)n1 | ≤ 0.3 µM
Cc1ccc(NC(=O)CCCCCC(=O)Nc2ccccc2N)cc1 | 3 µM
Nc1cccc(-c2cc3c(Oc4cccc(O)c4)ncnc3[nH]2)c1 | 1 µM
CCCC1(CCC)CCC2(CCN(CCCN(CC)CC)C2)CC1 [Atiprimod dihydrochloride] | 1 µM
Oc1cccc(-c2nc(N3CCOCC3)c3oc4ncccc4c3n2)c1 [PI 103 hydrochloride] | ≤ 0.3 µM
O=C1NC(=O)C(c2ccccc2[N+](=O)[O-])=C1Nc1ccc(O)c(Cl)c1 | 9 µM
COc1cc2ncnc(Nc3ccc(O)c(Br)c3)c2cc1OC | 1 µM
CN(C)C1CCN(C(=O)c2ccc(NC(=O)Nc3ccc(-c4nc(N5CCOCC5)nc(N5CCOCC5)n4)cc3)cc2)CC1 | ≤ 0.3 µM
Clc1ccc(C2(c3ccc(-c4cn[nH]c4)cc3)CCNCC2)cc1 | ≤ 0.3 µM

Recorded lowest phenotypically active concentration for CCOc1cc(N2CCC(O)CC2)ccc1Nc1ncc2c(n1)N(C)c1ccccc1C(=O)N2C , please?
9 µM

Next up: COc1c(C=O)c(O)cc2c1C(=O)c1ccccc1C2=O [Damnacanthal]
3 µM

Another molecule to check: Nc1nc(Cl)nc2c1ncn2[C@@H]1O[C@H](CO)[C@@H](O)[C@@H]1F [clofarabine]
1 µM
